Each item that follows carries a reported activity, negative = inhibition.
- assayOverview: Stat Signaling Pathway (AID 446);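 also: ME-180 cervical cancer cells given 40 pM IL-6 alongside compound; SIE-controlled beta-lactamase reporter measured as 460/530 nm FRET emission ratio; % is scaled to controls: 0 for no effect and ±100 for the full control effect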
- experimentalConditions: ME-180 (cervical carcinoma) SIE beta-lactamase reporter, IL-6 stimulated, 5 h; at 7.69 µM (top of the series) unless noted
Results filed as inconclusive are left out.
Report the value in % with no unit label.

Some solved cases for reference:
[[record]]
structuresmilesstring = "Cc1noc(C)c1C(=O)N1CCC[C@@]2(CCN(C(=O)NC(C)C)C2)C1"
endpointvalue = -12.3

[[record]]
structuresmilesstring = "CN(C)c1ncc2nc(-c3ccccc3)c(=O)n(C[C@H]3CCCO3)c2n1"
endpointvalue = 20.6

[[record]]
structuresmilesstring = "Fc1ccc(Nc2ccnc(-c3ccccc3C(F)(F)F)n2)cc1"
endpointvalue = 3.25

[[record]]
structuresmilesstring = "COc1cccc(-c2nc(N3CCN(C)CC3)c3ccccc3n2)c1"
endpointvalue = -2.04


[Q] Supply reported activity, negative = inhibition belonging to this compound: CC(C)CN1CC[C@@]2(CCCN(C(=O)c3cnccn3)C2)C1
[A] 4.96

[Q] Answer with reported activity, negative = inhibition of COCCn1c(=O)c(C)nc2cnc(Oc3ccccc3)nc21
[A] -12.4

[Q] Please indicate activity, negative = inhibition recorded for Cc1noc(C)c1-c1cncnc1NCc1ccccc1
[A] -5.87

[Q] Query activity, negative = inhibition for COc1ccc(-n2c(=O)c(C)nc3cnc(Oc4ccccc4)nc32)cc1
[A] -17.4

---

- assayOverview: qHTS for ATAD5 Antagonist screened against the NCATS CANVASS Library (AID 1347370); also: nearly all actives have a fitted effect of over 65% in size; also: potency is read from the fitted curve at half-maximal effect
- experimentalConditions: HEK293T-ATAD5-luc, 5-FUrd stimulated, luminescence, 16 h; series mostly up to 46.1 µM
- Source text: Natural products and their derivatives continue to be wellsprings of nascent therapeutic potential. […] To address this issue, the Canvass library of natural products was assembled (https://tripod.nih.gov/canvass), in collaboration with academic and industry researchers, for quantitative high-throughput screening (qHTS) across a diverse set of cell-based and biochemical assays. […] Luminescence intensity is proportional to ATAD5 expression. […]
Inconclusive results are not listed. Calls of active or inactive are those of the source. The call rests on the fitted dose curve; in most records, active means well fitted inhibition curve with a large enough effect; inconclusive means small, poorly fitted or top-dose-only effect; inactive means no such curve, though single readings can be large or run the other way.
assayReadout: Potency

[[record]]
compound = "C=CC(CCCCC)C1C(=O)NC(=O)C1C(=O)C1C(/C=C/C)C=CC2CC(C(=O)O)CC(C)C21 (stereo not drawn)"
assayreadout = "Potency"
endpointvalue = "inactive"

[[record]]
compound = "COc1c(O)cc2c(c1O)C(=O)c1c(coc1C)C2=O"
assayreadout = "Potency"
endpointvalue = "inactive"

[[record]]
compound = "C/C(=C\\[C@H](C)C(=O)C[C@H](O)CC1CC(=O)NC(=O)C1)[C@@H]1OC(=O)CCCC/C=C/[C@@H](O)C[C@@H]1C"
assayreadout = "Potency"
endpointvalue = "7.41 µM (active)"


---

- assayOverview: qHTS for Hypoxia signaling pathway (HIF-1) antagonists against the NCATS CANVASS Library (AID 1347374); also: nearly all actives have a fitted effect of over 60% in size
- experimentalConditions: HRE-bla ME-180 cells, HIF-1 beta-lactamase reporter, CoCl2; series mostly up to 38.3 µM
Results filed as inconclusive are left out. Active and inactive are the calls of the source. The call rests on the fitted dose curve; in most records, active means well fitted inhibition curve with a large enough effect; inconclusive means small, poorly fitted or top-dose-only effect; inactive means no such curve, though single readings can be large or run the other way.
Mark one answer only. Choices: true = active, false = inactive

Known results for compounds:
[[record]]
compound = "C/C=C(/CO)C(=O)O[C@@H]1[C@H](O)[C@@H](C(=O)OC)O[C@@H]2C[C@H]3OC(n4cnc5c(N)ncnc54)[C@H](OC)[C@H]3O[C@@]12O (stereo partly specified)"
labelvalue = "false"

[[record]]
compound = "C/C=C(/C)c1c(Cl)c(OC)c(C)c2c1Oc1c(Cl)c(O)c(Cl)c(C)c1C(=O)O2"
labelvalue = "true"

[[record]]
compound = "COC(=O)c1cc2cc3c(c(O)c2c(=O)o1)OC1(CC3)CC2=C(O1)C(=O)c1c(O)c(OC)cc(OC)c1C2=O (stereo unspecified)"
labelvalue = "true"


[Q] Hey, what did the test say about C/C=C/C1C=CC2CC(C)CC(C)C2C1C(=O)CC(=O)NC(CO)C/C=C/CCCCC (stereo unspecified) ?
[A] true

[Q] Kindly provide the recorded test outcome for the following compound: CC(C)=CC[C@H]1C[C@@]2(CC=C(C)C)C(=O)[C@](CC=C(C)C)(C(=O)C(C(=O)c3ccccc3)=C2O)C1(C)C
[A] true

[Q] Tell me the assay call for C=CC(C)(C)C(=O)[C@@H](C)[C@@H]1CC[C@@](C)(C=C)O1 please.
[A] false
